Examples of molecules with documented normalized growth follow.
experiment: chemical genetic growth profiling, strain panel (AID 1159580);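 further: tested at 20 µM; growth read once vehicle control cultures reached saturation at 30 °C; 1 = growth at the plate median or of vehicle wells; lower values mean less growth of the strain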; details: S. cerevisiae deletion strains, growth OD, locus YNL322C, strain KRE1, active compounds read low
The campaign covered roughly 5,500 compounds. About 2,000 (36%) were called active. About 18% were inconclusive and are not listed. The list shows a part of the results.

{"columns": ["MOLECULE", "normalized growth"],
 "data": [
  ["CC(C)CCCC(C)C1CCC2C3CC[C@H]4CCCC[C@]4(C)C3CC[C@]12C (some centres undefined)", 0.971],
  ["C[C@@H]1O[C@@H](O[C@H]2C[C@@H](O)[C@]3(CO)C4C(CC[C@]3(O)C2)[C@@]2(O)CC[C@H](C3=CC(=O)OC3)[C@@]2(C)C[C@H]4O)[C@H](O)[C@H](O)[C@H]1O (some centres undefined)", 1.02],
  ["Cc1cc2c(C(C)C)c(O)c(O)c(C=O)c2c(O)c1-c1c(C)cc2c(C(C)C)c(O)c(O)c(C=O)c2c1O", 0.832],
  ["C/C(=N/Nc1c(Cl)cc(Cl)cc1Cl)c1cc(F)ccc1OC(=O)c1ccccc1F", 1.01],
  ["COc1ccc(C=C2C(=O)NC(=S)NC2=O)cc1Br", 1.01],
  ["COc1ccc(-n2c(-c3ccc(C)cc3)csc2=N)cc1", 1],
  ["CC(CCC(=O)O)[C@H]1CCC2C3CC[C@@H]4C[C@H](O)CC[C@]4(C)C3C[C@H](O)[C@@]21C (some centres undefined)", 1.01],
  ["COC(=O)CCC(C)[C@H]1CCC2C3C(C[C@H](O)[C@@]21C)[C@@]1(C)CC[C@@H](O)C[C@H]1C[C@H]3O (some centres undefined)", 1.02],
  ["COC(=O)c1c(C)cc(OC(=O)c2c(C)c(Cl)c(O)c(C=O)c2O)c(C)c1O", 1],
  ["Nc1ccn([C@@H]2O[C@H](CO)[C@@H](O)C2O)c(=O)n1 (some centres undefined)", 1],
  ["Cc1ccc2cc(NC(=O)c3ccco3)ccc2n1", 1.01],
  ["COC(=O)CCC(C)C1CCC2C3CC[C@@H]4C[C@H](O)CC[C@]4(C)C3C[C@H](O)[C@]12C (some centres undefined)", 1.01],
  ["COc1ccc(-c2ccc(C=C(C#N)C#N)s2)cc1", 0.964],
  ["Cc1cc(CN2CC(C)OC(C)C2)cc(C)c1O (centres undefined)", 0.994],
  ["CC[C@H](CCC(C)[C@H]1CCC2C3CCC4C[C@@H](O)CC[C@]4(C)C3CC[C@@]21C)C(C)C (some centres undefined)", 1],
  ["C[C@H]1C2Cc3ccc(O)cc3[C@]1(C)CCN2CC1CC1", 1.02],
  ["COc1cc([C@@H]2c3cc4c(cc3[C@H](OC(C)=O)[C@H]3COC(=O)[C@@H]23)OCO4)cc(OC)c1OC", 1.01],
  ["O=C(Nc1ccccc1)Nc1ccc(C(F)(F)F)cc1Br", 0.995],
  ["C[C@H](CCC(=O)O)[C@H]1CCC2C3C(CC[C@@]21C)[C@@]1(C)CC[C@@H](O)C[C@H]1C[C@H]3O (some centres undefined)", 1.03]
]}
